Biological target: CB2 receptor (Mus musculus)
Sequence (P47936 whole entry): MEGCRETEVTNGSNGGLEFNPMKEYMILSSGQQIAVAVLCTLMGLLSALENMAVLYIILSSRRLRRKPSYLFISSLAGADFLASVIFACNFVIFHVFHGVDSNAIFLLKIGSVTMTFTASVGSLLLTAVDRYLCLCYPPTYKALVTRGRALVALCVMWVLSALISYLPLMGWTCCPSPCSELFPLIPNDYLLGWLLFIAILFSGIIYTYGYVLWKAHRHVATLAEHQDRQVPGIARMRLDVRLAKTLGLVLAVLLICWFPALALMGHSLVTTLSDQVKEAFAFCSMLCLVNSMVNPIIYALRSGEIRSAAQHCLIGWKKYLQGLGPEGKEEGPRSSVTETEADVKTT
measure-name: Ki (nM)
// return numeric value only (unit: nM, not printed)

# example entries with known answers
compound: N#CCCCCn1nc(C(=O)NC23CC4CC(CC(C4)C2)C3)c2ccccc21 [compound 3]
unit-string: nM
Ki: 0.309
--
compound: O=C(NC12CC3CC(CC(C3)C1)C2)c1nn(CCN2CCOCC2)c2ccccc12 [compound 1]
unit-string: nM
Ki: 0.147
--
compound: CN(C)CCCn1nc(C(=O)NC23CC4CC(CC(C4)C2)C3)c2ccccc21 [compound 6]
unit-string: nM
Ki: 20.9
--
compound: CN1CCCCC1Cn1nc(C(=O)NC23CC4CC(CC(C4)C2)C3)c2ccccc21 (centres unmarked) [compound 2]
unit-string: nM
Ki: 8.74
--
compound: CN1CCCCC1Cn1nc(C(=O)Nc2cccc3ccccc23)c2ccccc21 (centres unmarked) [compound 10]
unit-string: nM
Ki: 8.04

Item CN(C)CCCn1nc(C(=O)Nc2cccc3ccccc23)c2ccccc21 [compound 9] has what recorded Ki?
235

Request the reported Ki associated with O=C(NC12CC3CC(CC(C3)C1)C2)c1nn(CCCCI)c2ccccc12 [compound 5]
0.164

Please look up its Ki: O=C(Nc1cccc2ccccc12)c1nn(CCCCI)c2ccccc12 [compound 8]
27

Look at this compound and give its reported Ki. O=C(Nc1cccc2ccccc12)c1nn(CCCCCl)c2ccccc12 [compound 7]
0.135

What does the data say about its Ki? Entry: O=C(NN1CCCCC1)c1nn(-c2ccccc2)c2cc(Br)ccc12 [compound 11]
84.7

# lookup: Ki of O=C(NC12CC3CC(CC(C3)C1)C2)c1nn(CCCCCl)c2ccccc12 [compound 4]
1.34
